Tested on: SW-620
Measurement Description: NCI tumour cell line growth inhibition, 48 h
Active and inactive are the calls of the source. No stated cut-off is given here; in the data, active = GI50 up to about 1.1 µM and inactive = higher.
One label from this list, please: true for active, false for inactive

Compound	Target Or Test System	Class Assignment
CC[n+]1c(/C=C/c2ccc(N(CCCl)CCCl)cc2)ccc2cc(Br)ccc21	SW-620	false
CCC(=O)Nc1ccc(NCC(=O)Nc2ccc(Cl)cc2)cc1	SW-620	false
O=C(CCc1nnc(S)[nH]1)Nc1ccc(Cl)c(Cl)c1	SW-620	false
O=C1NC(=O)C(C(=O)C(=O)Nc2ccc(Br)cc2)C(=O)N1	SW-620	false
COC(=O)c1c(O)ccc2c1c1c(n2Cc2ccccc2OC)C(=O)c2ccccc2C1=O	SW-620	false
CCOc1snc(C(Cl)(Cl)Cl)c1Cl	SW-620	false

Ask | State the result this test recorded for NC(CCC(=O)NC(CSC(=O)N(O)c1ccc(Cl)cc1)C(=O)NCC(=O)O)C(=O)O (stereo unspecified) .
Reply | true

Ask | Entry to check: `CNCCCNC1(c2cc3ccccc3s2)CCCCC1`
Reply | false

Ask | Request: `Cc1c(C)c(C)c(-n2c(=O)n(C)c(=O)n2C(C)(C)C)c(C)c1C`
Reply | false

Ask | Similarly, `CCc1cccc(CC)c1Nc1nc(-c2ccccc2-c2ccccc2)cs1` ?
Reply | false

Ask | What about `Cc1cc(N2CCOCC2)nc2ccc(Cc3ccc4nc(N5CCOCC5)cc(C)c4c3)cc12` ?
Reply | false

Ask | Another compound: `Cc1ccc(/C=N/Nc2ccc3ccccc3n2)s1`
Reply | false

Ask | Another compound to look at: `C=C(CN)CO[Si](C)(C)C(C)(C)C`
Reply | false

Ask | Now give it for `CCCC(=O)Nc1cc(C(=O)N2C[C@@H]3C[C@]34C2=CC(=O)c2[nH]cc(C)c24)n(COC)c1` too.
Reply | false

----------
Test system: NCI-H226
Measurement Description: NCI tumour cell line growth inhibition, 48 h
Active and inactive are the calls of the source. Cut-off read from the data, not from the text of the source: active = GI50 up to about 1.1 µM and inactive = higher. Where a SMILES comes first, the peptide text is derived from it. [ ]: non-standard residue; d: D form. pGlu = O=C1CC[CH](C(=O)O)N1
GI50 listing for selected compounds.

Worked set:
> print(dat)
                                   compound  experimental.readout               result
1  CC1=C(C(=O)OC(C)(C)C)C(c2ccc([N+](=O)[O-])cc2)C(C(=O)OC(C)(C)C)=C(C)N1                  GI50   21.3 µM (inactive)
2  COc1cc(C2C(C(=O)Nc3ccc(Cl)c(Cl)c3)=C(C)NC(C)=C2C(=O)Nc2ccc(Cl)c(Cl)c2)ccc1O                  GI50   16.7 µM (inactive)
3       O=c1[nH]nc(Cc2ccccc2)n1/N=C/c1cccs1                  GI50  > 100 µM (inactive)
4  CC1C(c2ccc3c(c2)OCO3)c2cc3c(cc2OC1N1CCOCC1)OCO3 (centres undefined)                  GI50     22 µM (inactive)
5  CC(NC(=O)C1CCC(=O)N1)C(=O)N1CCCC1C(N)=O (stereo not drawn) ([pGlu]-Ala-Pro-NH2; configuration not given here)                  GI50  > 100 µM (inactive)

Ask | Which value of GI50 has been reported for `Cc1cc(C)n(C(C)(C(=O)Cc2ccccc2)n2nc(C)cc2C)n1` in the records?
Reply | > 100 µM (inactive)

Ask | Another compound: `CC1CC[P+](c2ccccc2)(c2ccccc2)CC1`
Reply | > 100 µM (inactive)

Ask | Try this compound too: `CC(C)=NNC(=S)NC12CC3CC(CC(C3)C1)C2`
Reply | > 100 µM (inactive)

Ask | Okay, and O=c1[nH]c(=O)n(C2CC(O)C(CO)O2)cc1C(F)(C(F)(F)F)C(F)(F)F (centres undefined) ?
Reply | > 100 µM (inactive)
